The values you see were collected from patent US8921383B2.

Listed here are compounds together with their documented IC50.
# study_system: purified recombinant human SYK360-635 (Homo sapiens, UniProt P43405)
# Construct: truncated construct of Spleen Tyrosine Kinase aa 360-635; GST
# procedure_details: SYK kinase assay: 33P γATP incorporation into biotinylated peptide substrate, IC50 determination
# assay_setup: SYK 0.5 nM, ATP 20 μM, DYE peptide 5 μM, 30° C. 15 min; read-out: IC50 h-syk-gst-sf9-c (inactive-dephosphorylated)

compound: COc1ccc(Nc2nc(-c3ccc(C(=O)NCCc4cc[nH]c(=O)c4)cc3)nc3scnc23)cc1OC
study_system: purified recombinant human SYK360-635 (Homo sapiens, UniProt P43405)
IC50 / nM: 930
--
compound: CNC(=O)c1ccc(NC(=O)c2cccc(-c3nc(Nc4ccc(OC)c(OC)c4)c4ncsc4n3)c2)cc1
study_system: purified recombinant human SYK360-635 (Homo sapiens, UniProt P43405)
IC50 / nM: 71
--
compound: COc1ccc(Nc2nc(-c3ccc(C(=O)NCCc4ccn(C)c(=O)c4)cc3)nc3scnc23)cc1OC
study_system: purified recombinant human SYK360-635 (Homo sapiens, UniProt P43405)
IC50 / nM: 916
--
compound: COc1ccc(-c2nc(Nc3cccc(N4CCC[C@@H]4C)c3)c3ncsc3n2)cn1
study_system: purified recombinant human SYK360-635 (Homo sapiens, UniProt P43405)
IC50 / nM: 1040
--
compound: COc1ccc(Nc2nc(N3CCC(NC(=O)c4ccc(C(=O)O)nc4)C3)nc3scnc23)cc1OC (stereo not shown)
study_system: purified recombinant human SYK360-635 (Homo sapiens, UniProt P43405)
IC50 / nM: 129
--
compound: COCC1CCCN1c1cccc(Nc2nc(-c3cccc(C(=O)O)c3)nc3scnc23)c1 (stereo not shown)
study_system: purified recombinant human SYK360-635 (Homo sapiens, UniProt P43405)
IC50 / nM: 3130
--
compound: COc1ccc(Nc2nc(N3CCCC(C(=O)Nc4ccc5cn[nH]c5c4)C3)nc3scnc23)cc1OC (stereo not shown)
study_system: purified recombinant human SYK360-635 (Homo sapiens, UniProt P43405)
IC50 / nM: 922

###

# study_system: purified recombinant human SYK360-635 (Homo sapiens)
# Construct: truncated construct of Spleen Tyrosine Kinase aa 360-635; GST
# procedure_details: SYK kinase assay: 33P γATP incorporation into biotinylated peptide substrate, IC50 determination
# assay_setup: SYK 0.5 nM, ATP 20 μM, DYE peptide 5 μM, 30° C. 15 min; read-out: IC50 h-syk-gst-sf9-c (inactive-dephosphorylated)
pIC50: −log10 of the molar value.
pIC50 of 6 or higher: TRUE. Under 6: FALSE.

compound: COc1ccc(Nc2nc(N3CCCC(C(=O)Nc4ccc(-c5nnc(S)o5)cc4)C3)nc3scnc23)cc1OC (stereo not shown) [Compound I-51]
category: TRUE
--
compound: COc1ccc(Nc2nc(N3CCC(C(=O)NCCc4cc[nH]c(=O)c4)CC3)nc3scnc23)cc1OC [Compound I-22]
category: FALSE
--
compound: COC(=O)c1cccc(-c2nc(Nc3cccc(S(C)(=O)=O)c3)c3ncsc3n2)c1 [Compound I-26]
category: FALSE
--
compound: CS(=O)(=O)c1cccc(Nc2nc(-c3cccc(C(=O)O)c3)nc3scnc23)c1 [Compound I-27]
category: FALSE
--
compound: COc1ccc(Nc2nc(-c3cccc(CNc4ccc(C(=O)O)cc4)c3)nc3scnc23)cc1OC [Compound I-30]
category: TRUE

###

# study_system: purified recombinant human SYK360-635 (Homo sapiens, UniProt P43405)
# Construct: truncated construct of Spleen Tyrosine Kinase aa 360-635; GST
# procedure_details: SYK kinase assay: 33P γATP incorporation into biotinylated peptide substrate, IC50 determination
# assay_setup: SYK 0.5 nM, ATP 20 μM, DYE peptide 5 μM, 30° C. 15 min; read-out: IC50 h-syk-gst-sf9-c (inactive-dephosphorylated)
quantity: IC50 (nM)

molecule: COc1ccc(Nc2nc(N3CCCC(C(=O)Nc4ccc5[nH]ncc5c4)C3)nc3scnc23)cc1OC (stereo not shown)
val: 1690

molecule: COc1ccc(Nc2nc(N3CCCC(C(=O)Nc4cnccn4)C3)nc3scnc23)cc1OC (stereo not shown)
val: 1520

molecule: COc1ccc(Nc2nc(N3CCCC(C(=O)Nc4ccc(C(=O)O)c(OC)c4)C3)nc3scnc23)cc1OC (stereo not shown)
val: 164

molecule: COc1ccc(Nc2nc(-c3cccc(C(=O)Nc4ccc(-c5nnc(S)o5)cc4)c3)nc3scnc23)cc1OC
val: 45

molecule: O=C(O)c1cccc(-c2nc(Nc3cccc(N4CC5(COC5)C4)c3)c3ncsc3n2)c1
val: 3870

molecule: COc1ccc(Nc2nc(-c3ccc(C(=O)NCCN(C)C)cc3)nc3scnc23)cc1OC
val: 278

molecule: COc1ccc(Nc2nc(N3CCCC(C(=O)Nc4ccc5c(c4)CNC5=O)C3)nc3scnc23)cc1OC (stereo not shown)
val: 1030

###

# study_system: purified recombinant human SYK360-635 (Homo sapiens, UniProt P43405)
# Construct: truncated construct of Spleen Tyrosine Kinase aa 360-635; GST
# procedure_details: SYK kinase assay: 33P γATP incorporation into biotinylated peptide substrate, IC50 determination
# assay_setup: SYK 0.5 nM, ATP 20 μM, DYE peptide 5 μM, 30° C. 15 min; read-out: IC50 h-syk-gst-sf9-c (inactive-dephosphorylated)
pIC50: −log10 of the molar value.
True means recorded pIC50 is 6 or above; False means it is below 6.

molecule: COc1ccc(Nc2nc(-c3cccc(CCc4ccc(C(=O)O)cc4)c3)nc3scnc23)cc1OC
category: True
//
molecule: COc1ccc(Nc2nc(-c3cccc(C(F)=Cc4ccc(C(=O)O)cc4)c3)nc3scnc23)cc1OC (stereo in doubt)
category: True
//
molecule: COc1ccc(Nc2nc(N3CCCC(C(=O)Nc4ccc5c(c4)C(=O)NC5=O)C3)nc3scnc23)cc1OC (stereo not shown)
category: False
//
molecule: COc1ccc(Nc2nc(N3CCC(NC(=O)c4ccc5cn[nH]c5c4)C3)nc3scnc23)cc1OC (stereo not shown)
category: True
//
molecule: COc1ccc(Nc2nc(N3CCCC(C(=O)NC4CNC(=O)C4)C3)nc3scnc23)cc1OC (stereo not shown)
category: False
//
molecule: COc1ccc(Nc2nc(-c3cccc(C(=O)O)c3)nc3scnc23)cc1OC
category: True

###

# study_system: purified recombinant human SYK360-635 (Homo sapiens)
# Construct: truncated construct of Spleen Tyrosine Kinase aa 360-635; GST
# procedure_details: SYK kinase assay: 33P γATP incorporation into biotinylated peptide substrate, IC50 determination
# assay_setup: SYK 0.5 nM, ATP 20 μM, DYE peptide 5 μM, 30° C. 15 min; read-out: IC50 h-syk-gst-sf9-c (inactive-dephosphorylated)
pIC50: −log10 of the molar value.

compound: COc1ccc(Nc2nc(N3CCCC(C(=O)Nc4ccc(-c5noc(=O)[nH]5)cc4)C3)nc3scnc23)cc1OC (stereo not shown)
pIC50: 6.87
--
compound: C[C@H]1CCCN1c1cccc(Nc2nc(N3CCCC(O)C3)nc3scnc23)c1 (stereo partly shown)
pIC50: 6.12
--
compound: C[C@H]1CCCN1c1cccc(Nc2nc(-c3ccc(C(=O)NCCN(C)C)cc3)nc3scnc23)c1
pIC50: 6.45
--
compound: COc1cc(Nc2nc(-c3cccc(C(N)=O)c3)nc3scnc23)cc(OC)c1OC
pIC50: 5.65
--
compound: COc1ccc(Nc2nc(N3CCC(NC(=O)c4ccc5[nH]c(=O)[nH]c5c4)C3)nc3scnc23)cc1OC (stereo not shown)
pIC50: 6.31
--
compound: COc1ccc(Nc2nc(-c3ccc(C(N)=O)cc3)nc3scnc23)cc1OC
pIC50: 6.95
--
compound: COc1ccc(Nc2nc(N3CCCC(C(=O)Nc4ccc(C(=O)O)c(O)c4)C3)nc3scnc23)cc1OC (stereo not shown)
pIC50: 7.15

###

Each entry below carries its recorded log10 of IC50.
# study_system: purified recombinant human SYK360-635 (Homo sapiens)
# Construct: truncated construct of Spleen Tyrosine Kinase aa 360-635; GST
# procedure_details: SYK kinase assay: 33P γATP incorporation into biotinylated peptide substrate, IC50 determination
# assay_setup: SYK 0.5 nM, ATP 20 μM, DYE peptide 5 μM, 30° C. 15 min; read-out: IC50 h-syk-gst-sf9-c (inactive-dephosphorylated)
quantity: log10 of IC50 (log10 of the value in nM)

compound: COc1ccc(Nc2nc(-c3cccc(C(N)=O)c3)nc3scnc23)cc1OC [Compound I-68]
val: 2.37
--
compound: COc1ccc(Nc2nc(-c3cccc(C(=O)Nc4ccc(C5SC(=O)NC5=O)cc4)c3)nc3scnc23)cc1OC (centres unmarked) [Compound I-63]
val: 1.72
--
compound: COc1ccc(Nc2nc(-c3cccc(C(=O)Nc4ccc(C(=O)O)c(OC)c4)c3)nc3scnc23)cc1OC [Compound I-16]
val: 1.08
--
compound: COc1ccc(Nc2nc(N3CCC(NC(=O)c4ccc(C(N)=O)nc4)C3)nc3scnc23)cc1OC (centres unmarked) [Compound I-37]
val: 2.96
--
compound: COc1ccc(Nc2nc(-c3cccc(/C=C/c4ccc(C(=O)O)cc4)c3)nc3scnc23)cc1OC [Compound I-32]
val: 1.78
--
compound: COc1ccc(Nc2nc(-c3cccc(C(=O)Nc4ccc5[nH]ncc5c4)c3)nc3scnc23)cc1OC [Compound I-18]
val: 2.99
--
compound: O=C(O)c1cccc(-c2nc(Nc3cccc(N4C[C@H]5CC[C@@H](C4)O5)c3)c3ncsc3n2)c1 [Compound I-34]
val: 3.39
--
compound: COc1ccc(Nc2nc(-c3cccc(C(=O)N4CCCNCC4)c3)nc3scnc23)cc1OC [Compound I-2]
val: 3.05
--
compound: COc1ccc(Nc2nc(-c3ccc(C(=O)NCCc4ccncc4)cc3)nc3scnc23)cc1OC [Compound I-20]
val: 2.75
--
compound: C[C@H]1CCCN1c1cccc(Nc2nc(-c3ccc(C(N)=O)cc3)nc3scnc23)c1 [Compound I-62]
val: 2.53
--
compound: COc1ccc(Nc2nc(N3CCC(C(=O)NCCc4ccncc4)CC3)nc3scnc23)cc1OC [Compound I-21]
val: 3.27
--
compound: COc1ccc(Nc2nc(N3CCC(NC(=O)c4ccc(C(=O)O)c(O)c4)C3)nc3scnc23)cc1OC (centres unmarked) [Compound I-9]
val: 1.60
--
compound: COc1ccc(Nc2nc(N3CCC(NC(=O)c4cnccn4)C3)nc3scnc23)cc1OC (centres unmarked) [Compound I-12]
val: 2.97
--
compound: COc1ccc(Nc2nc(N3CCC(NC(=O)c4ccc(C(=O)O)c(OC)c4)C3)nc3scnc23)cc1OC (centres unmarked) [Compound I-10]
val: 2.05
--
compound: COC(=O)c1ccc(C(=O)NC2CCN(c3nc(Nc4ccc(OC)c(OC)c4)c4ncsc4n3)C2)cn1 (centres unmarked) [Compound I-38]
val: 3.29
--
compound: COc1ccc(Nc2nc(N3CCC(NC(=O)c4ccc(N)nc4)C3)nc3scnc23)cc1OC (centres unmarked) [Compound I-13]
val: 2.75
--
compound: COc1ccc(Nc2nc(N3CCCC(C(=O)Nc4ccc(-c5nnc(S)n5C)cc4)C3)nc3scnc23)cc1OC (centres unmarked) [Compound I-52]
val: 2.64
--
compound: COc1ccc(Nc2nc(-c3cccc(C(=O)Nc4ccc5cn[nH]c5c4)c3)nc3scnc23)cc1OC [Compound I-19]
val: 1.75
--
compound: COc1ccc(Nc2nc(N3CCC(NC(=O)c4ccc5[nH]ncc5c4)C3)nc3scnc23)cc1OC (centres unmarked) [Compound I-35]
val: 2.62
--
compound: COc1ccc(Nc2nc(N3CCCC(C(=O)Nc4ccc5c(c4)CC(=O)N5)C3)nc3scnc23)cc1OC (centres unmarked) [Compound I-40]
val: 3.73
--
compound: COC(=O)c1cccc(-c2nc(Nc3cccc(C(F)(F)F)c3)c3ncsc3n2)c1 [Compound I-56]
val: 3.50
--
compound: O=C(O)c1cccc(-c2nc(Nc3cccc(C(F)(F)F)c3)c3ncsc3n2)c1 [Compound I-57]
val: 3.63
--
compound: COc1ccc(Nc2nc(N3CCC(NC(=O)c4ccc(C(=O)O)cc4)C3)nc3scnc23)nc1OC (centres unmarked) [Compound I-55]
val: 3.79
